target: PDE4Bcat (Homo sapiens); construct: catalytic domain (indicated as “cat,” hereinafter), PDE4Bcat; assay: Inhibition of phosphodiesterase activity, [3H]-cAMP hydrolysis, recombinant PDE4Bcat; settings: cAMP 2 μmol/L, read-out: IC50(μmol/L) PDE4
Measured IC50 accompanies every entry in the list below.

Answered examples (4):
>>> print(df.to_string())
                                   compound  observed_result
0        CCc1cc2c(C3=NNC(=O)CC3)cc(Cl)cn2n1      > 10 µmol/L
1  COC(=O)c1c(C(C)C)nn2c(OC)ccc(-c3ccc(=O)n(Cc4ccccc4)n3)c12   1 to 10 µmol/L
2  COc1ccc(C2=NNC(=O)C(C)C2)c2cc(C(C)C)nn12 (centres unmarked)  0.1 to 1 µmol/L
3  CCCc1cc2c(C3=NNC(=O)CC3C)ccc(OC)n2n1 (centres unmarked)  0.1 to 1 µmol/L

Task: # query: IC50 of entry CCOC(=O)c1ccc(C2=NNC(=O)CC2C)c2cc(CC)nn12 (centres unmarked)
Output: 1 to 10 µmol/L

---

Measured inhibition in vivo at 0.1 mg/kg accompanies every entry in the list below.
system: histamine-induced bronchoconstriction; assay: Histamine-induced bronchoconstriction in guinea pigs; assay type: in vivo, guinea pig; conditions: Cavia porcellus, iv, 0.5 min; values in brackets: test compound 0.1 mg/kg, i.v., 30 seconds after administration, histamine 12.5 μg/kg i.v.

                                   molecule  observed_result
0  COc1ccc(C2=NNC(=O)CC2C)c2cc(C(F)F)nn12 (stereo not drawn) [Example 222]        70 to 80%
1  COc1ccc(C2=NNC(=O)CC2C)c2cc(C(F)(F)F)nn12 (single isomer, unassigned; (+)) [Example 317]            ≥ 90%
2  CCc1cc2c(C3=NNC(=O)CC3C)ccc(C(C)=O)n2n1 (stereo not drawn) [Example 235]            ≥ 90%
3  COc1ccc(C2=NNC(=O)CC2C)c2cc(C(F)(F)F)nn12 (stereo not drawn) [205(211)]            ≥ 90%
4  COc1ccc(C2=NNC(=O)CC2)c2cc(C(F)(F)F)nn12 [Example 209]        80 to 90%
5  CCc1cc2c(C3=NNC(=O)CC3C)ccc(NC)n2n1 (stereo not drawn) [Example 225]        80 to 90%

Task: # query: inhibition in vivo at 0.1 mg/kg of entry CCc1cc2c(C3=NNC(=O)CC3C)ccc(OC(C)C)n2n1 (stereo not drawn) [Example 245]
Output: ≥ 90%

Task: Please do the same for C=Cc1cc2c(C3=NNC(=O)CC3C)ccc(OC)n2n1 (stereo not drawn) [Example 239] as well.
Output: ≥ 90%

Task: Please do the same for CCc1cc2c(C3=NNC(=O)CC3C)ccc(SC)n2n1 (stereo not drawn) [Example 223] as well.
Output: ≥ 90%

---

Measured pIC50 accompanies every entry in the list below.
target: PDE3A catalytic domain (PDE3Acat) (Homo sapiens, UniProt Q14432); construct: cDNA fragments of PDE3A catalytic domain (indicated as “cat,” hereinafter); made in house; host or cells: Sf9 insect cells (baculovirus, Bac-to-Bac); assay: Inhibition of phosphodiesterase activity, [3H]-cAMP hydrolysis, recombinant PDE3Acat; format: biochemical; details: human recombinant PDE3Acat, cAMP 2 μmol/L; read-out: IC50(μmol/L) PDE3
Sequence (Q14432 674-1093 limits assumed): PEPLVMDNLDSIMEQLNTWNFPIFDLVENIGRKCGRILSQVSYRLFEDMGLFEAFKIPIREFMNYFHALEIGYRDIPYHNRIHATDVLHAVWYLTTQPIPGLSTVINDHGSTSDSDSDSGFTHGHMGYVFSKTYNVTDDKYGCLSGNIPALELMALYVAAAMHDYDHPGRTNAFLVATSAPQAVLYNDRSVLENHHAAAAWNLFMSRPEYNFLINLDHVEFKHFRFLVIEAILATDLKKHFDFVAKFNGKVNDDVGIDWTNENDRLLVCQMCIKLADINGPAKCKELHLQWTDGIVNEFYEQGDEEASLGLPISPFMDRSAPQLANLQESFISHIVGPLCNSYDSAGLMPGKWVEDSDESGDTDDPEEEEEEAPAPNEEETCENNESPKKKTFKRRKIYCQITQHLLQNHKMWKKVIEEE
pIC50: −log10 of the molar value.

Answered examples (5):
>>> df
                                   compound                               system_name  observed_result
0  COc1ccc(-c2nn(C)c(=O)cc2C)c2cc(C(C)C)nn12 [Example 297]  PDE3A catalytic domain (PDE3Acat) (Homo sapiens, UniProt Q14432)           < 5.00
1  COc1ccc(-c2cc(C)c(=O)n(Cc3cccnc3)n2)c2cc(C(C)C)nn12 [Example 299]  PDE3A catalytic domain (PDE3Acat) (Homo sapiens, UniProt Q14432)           < 5.00
2  CCc1nn2c(S(C)(=O)=O)ccc(C3=NNC(=O)CC3C)c2c1O (stereo not shown) [Example 252]  PDE3A catalytic domain (PDE3Acat) (Homo sapiens, UniProt Q14432)     5.00 to 6.00
3  CCc1cc2c(C3=NNC(=O)CC3C)ccc([S+](C)[O-])n2n1 (stereo not shown) [Example 249]  PDE3A catalytic domain (PDE3Acat) (Homo sapiens, UniProt Q14432)     5.00 to 6.00
4  CCc1cc2c(C3=NNC(=O)CC3C)ccc(NC)n2n1 (stereo not shown) [Example 225]  PDE3A catalytic domain (PDE3Acat) (Homo sapiens, UniProt Q14432)     5.00 to 6.00

Task: Observed pIC50 on PDE3A catalytic domain (PDE3Acat) (Homo sapiens, UniProt Q14432) for COc1ccc(-c2ccc(=O)n(Cc3ccccn3)n2)c2cc(C(C)C)nn12 [Example 274] , please.
Output: < 5.00

Task: Please do the same for CCc1cc2c(C3=NNC(=O)CC3C)ccc(N3CCOCC3)n2n1 (stereo not shown) [Example 226] as well.
Output: 5.00 to 6.00

---

Measured IC50 accompanies every entry in the list below.
biological target: PDE4Bcat (Homo sapiens, UniProt Q07343); construct: catalytic domain (indicated as “cat,” hereinafter), PDE4Bcat; assay: Inhibition of phosphodiesterase activity, [3H]-cAMP hydrolysis, recombinant PDE4Bcat; details: cAMP 2 μmol/L, read-out: IC50(μmol/L) PDE4
Sequence (Q07343 330-659 limits assumed): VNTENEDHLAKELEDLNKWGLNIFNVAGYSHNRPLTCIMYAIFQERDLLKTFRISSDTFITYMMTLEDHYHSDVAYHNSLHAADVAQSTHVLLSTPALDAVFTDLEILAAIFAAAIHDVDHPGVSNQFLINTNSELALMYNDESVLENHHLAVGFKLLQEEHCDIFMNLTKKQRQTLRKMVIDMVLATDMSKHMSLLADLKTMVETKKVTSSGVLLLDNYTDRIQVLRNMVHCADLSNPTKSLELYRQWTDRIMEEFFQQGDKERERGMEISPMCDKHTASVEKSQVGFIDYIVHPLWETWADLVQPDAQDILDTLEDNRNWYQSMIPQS

Answered examples (5):
>>> df
                                   compound  observed_result
0  COc1ccc(-c2ccc(=O)n(Cc3ccncc3)n2)c2cc(C(C)C)nn12   1 to 10 µmol/L
1  CCOc1ccc(C2=NNC(=O)CC2C)c2cc(CC)nn12 (stereo not shown)   1 to 10 µmol/L
2  COc1ccc(C2=NNC(=O)CC2C)c2cc(C(F)F)nn12 (stereo not shown)       < 1 µmol/L
3  CCC1CC(=O)NN=C1c1ccc(OC)n2nc(C(F)(F)F)cc12 (stereo not shown)       < 1 µmol/L
4  COc1ccc(C2=NNC(=O)CC2C)c2cc(C(F)(F)F)nn12 (single isomer, unassigned; (+)) [Example 317]       < 1 µmol/L

Task: # query: IC50 of entry CCc1cc2c(C3=NNC(=O)CC3C)cc(Cl)cn2n1 (single isomer, unassigned; (-)) [Example 314]
Output: 0.1 to 1 µmol/L

Task: Please do the same for COc1ccc(C2=NNC(=O)CC2C)c2cc(C(C)F)nn12 (stereo not shown) as well.
Output: < 1 µmol/L

Task: Please do the same for CCc1cc2c(-c3ccc(=O)[nH]n3)cccn2n1 as well.
Output: > 10 µmol/L

Task: Please do the same for COc1ccc(C2=NN(Cc3cccnc3)C(=O)CC2)c2cc(C(C)C)nn12 as well.
Output: 1 to 10 µmol/L

Task: Please do the same for COc1ccc(C2=NNC(=O)CC2C)c2cc(C(C)O)nn12 (stereo not shown) as well.
Output: < 1 µmol/L

---

Measured IC50 accompanies every entry in the list below.
Molecular target: PDE4Bcat (Homo sapiens, UniProt Q07343)
Construct: catalytic domain (indicated as “cat,” hereinafter), PDE4Bcat
Experiment: Inhibition of phosphodiesterase activity, [3H]-cAMP hydrolysis, recombinant PDE4Bcat
Conditions: cAMP 2 μmol/L, read-out: IC50(μmol/L) PDE4
Description: RT-PCR was performed to isolate cDNA fragments of PDE3A catalytic domain (indicated as “cat,” hereinafter), PDE4Bcat, PDE5Acat and PDE10A1 from human RNA. Using Gateway system (Invitrogen) and Bac-to-Bac (registered trademark) Baculovirus Expression system (Invitrogen), the isolated cDNA fragments were transfected into Sf9 insect cells for expression of the PDE proteins. […]

Answered examples (2):
In [3]: df
Out[3]:
                                   compound  observed_result
0  CCc1cc2c(C3=NNC(=O)CC3C)ccc(OC)n2n1 (stereo not drawn) [Example 216]  0.1 to 1 µmol/L
1  CCc1nn2c(OC)ccc(C3=NNC(=O)CC3C)c2c1Cl (stereo not drawn) [Example 213]  0.1 to 1 µmol/L

Task: # query: IC50 of entry COc1ccc(-c2n[nH]c(=O)cc2C)c2cc(C(F)(F)F)nn12 [Example 303]
Output: 1 to 10 µmol/L

---

biological target: PDE3A catalytic domain (PDE3Acat) (Homo sapiens, UniProt Q14432); construct: cDNA fragments of PDE3A catalytic domain (indicated as “cat,” hereinafter); made in house; host or cells: Sf9 insect cells (baculovirus, Bac-to-Bac); experiment: Inhibition of phosphodiesterase activity, [3H]-cAMP hydrolysis, recombinant PDE3Acat; type: biochemical; details: human recombinant PDE3Acat, cAMP 2 μmol/L; read-out: IC50(μmol/L) PDE3
pIC50: −log10 of the molar value.
Measured pIC50 accompanies every entry in the list below.

                                   compound  observed_result
0  CCc1cc2c(C3=NN(Cc4cccnc4)C(=O)CC3C)cc(F)cn2n1 (centres unmarked)           < 5.00
1        CCc1cc2c(C3=NNC(=O)CC3)ccc(OC)n2n1           < 5.00
2  CCOC(=O)c1ccc(C2=NNC(=O)CC2C)c2cc(CC)nn12 (centres unmarked)     5.00 to 6.00

Task: # query: pIC50 of entry CCc1cc2c(C3=NNC(=O)CC3C)ccc(OC(C)C)n2n1 (centres unmarked)
Output: 5.00 to 6.00

Task: Please do the same for COc1ccc(-c2ccc(=O)[nH]n2)c2cc(C(F)(F)F)nn12 as well.
Output: 5.00 to 6.00

Task: Please do the same for COc1ccc(-c2n[nH]c(=O)cc2C)c2cc(C(F)(F)F)nn12 as well.
Output: < 5.00
